Assay: DSSTox (CPDBAS) Carcinogenic Potency Database Summary SingleCellCall Results
Details: animal chronic carcinogenicity bioassays, CPDB summary call
The source made the active and inactive calls.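 The calls were made as follows: active = a tumor-causing dose value with its tumor site reported for any sex and species group of a rodent or other animal cancer study; inconclusive = only studies judged inadequate by the national testing program; inactive = tested in at least one study, none positive.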
RECORDED METRIC: outcome

Recorded outcome, per entry:
Oc1ccc(OCc2ccccc2)cc1 ... inactive; active
Nc1ccc([N+](=O)[O-])cc1N ... inactive; active
CCCN=[N+]([O-])CCC ... active
O=C1C(Cl)=C(Cl)C(=O)c2ccccc21 ... inactive
O=NN1CC=CCC1 ... active

I need outcome for every entry listed below, if you could help.
1. c1ccc(-c2ccccc2)cc1
2. COc1cccc2c1C(=O)c1c(O)c3c(c(O)c1C2=O)C[C@@](O)(C(=O)CO)C[C@@H]3O[C@H]1C[C@H](N)[C@H](O)[C@H](C)O1
3. S=c1nc[nH]c2nc[nH]c12
4. CCO
5. O=C1C=C(N2CC2)C(=O)C(N2CC2)=C1N1CC1
6. CC(=O)CN(C)N=O
7. CC[N+]([O-])=NC

["inactive; active", "inactive; active", "inactive; active", "active", "active", "active", "active"]

I need outcome for every entry listed below, if you could help.
1. C/C=C/c1ccc2c(c1)OCO2
2. Nc1nc(N)nc(-c2ccc([N+](=O)[O-])o2)n1
3. c1ccc2c(c1)[nH]c1ccccc12
4. Cc1cc(N=Nc2ccccc2C)ccc1N

inactive
active
active
active

I need outcome for every entry listed below, if you could help.
1. CC1=CC(=C(c2ccc(N)cc2)c2ccc(N)cc2)C=CC1=N
2. CCCCCC(N)=O

inactive
active

I need outcome for every entry listed below, if you could help.
1. CC(=O)CN(CC(C)=O)N=O
2. CC1(C)S[C@@H]2[C@H](NC(=O)COc3ccccc3)C(=O)N2[C@H]1C(=O)O
3. CC(C(=O)O)c1cccc(C(=O)c2ccccc2)c1 (centres undefined)
4. CC(C)=CCC/C(C)=C/C=O

active
inactive
inactive
inactive

I need outcome for every entry listed below, if you could help.
1. O=NN1CCCCO1
2. COP(=O)(OC)C(O)C(Cl)(Cl)Cl (centres undefined)
3. CCCN(CCC)c1ccc(N=Nc2cc[n+]([O-])cc2)cc1
4. CCCCN(N)C=O
5. FC(F)Cl
6. Oc1ccc(-c2ccccc2)cc1

active
inactive
inactive
active
inactive
inactive; active

----------
Test: DSSTox (CPDBAS) Carcinogenic Potency Database Summary SingleCellCall Results
Conditions: animal chronic carcinogenicity bioassays, CPDB summary call
Calls of active or inactive are those of the source.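 Rule for the calls: active = a tumor-causing dose value with its tumor site reported for any sex and species group of a rodent or other animal cancer study; inconclusive = only studies judged inadequate by the national testing program; inactive = tested in at least one study, none positive.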
Permitted responses: active, inactive

Write down the call the test reported for this compound. Item: C[C@@H]1C/C=C/C=C/C=C/C=C/[C@H](O[C@@H]2O[C@H](C)[C@@H](O)[C@H](N)[C@@H]2O)C[C@@H]2O[C@](O)(C[C@@H](O)C[C@H]3O[C@@H]3/C=C/C(=O)O1)C[C@H](O)[C@H]2C(=O)O
inactive

Write down the call the test reported for this compound. Item: CCCC/C=N/N(C)C=O
active

Write down the call the test reported for this compound. Item: C=CC(=O)NCO
active

Write down the call the test reported for this compound. Item: COc1cc2c(cc1N)oc1ccccc12
active

Write down the call the test reported for this compound. Item: CCN(CC)CCOc1ccc(/C(=C(\Cl)c2ccccc2)c2ccccc2)cc1
inactive

Write down the call the test reported for this compound. Item: NNC(=O)c1ccncc1
active
